Target: T1, Drosophila imaginal morphogenesis protein-late 2 protein (Imp-L2) (Drosophila melanogaster, UniProt Q09024 26-267)
T1 chain: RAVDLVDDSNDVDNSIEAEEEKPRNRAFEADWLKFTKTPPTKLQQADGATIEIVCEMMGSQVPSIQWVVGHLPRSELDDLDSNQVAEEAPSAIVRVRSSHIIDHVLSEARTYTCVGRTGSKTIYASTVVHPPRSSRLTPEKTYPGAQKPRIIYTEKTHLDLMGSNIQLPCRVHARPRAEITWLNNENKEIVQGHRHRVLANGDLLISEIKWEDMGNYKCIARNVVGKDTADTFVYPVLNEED
Experiment: ITC; 300 mM NaCl (legend says 400 mM)
Test readout: Kd (pM)
Give the number; pM is assumed, so skip it.

Prompt: If you can, please state the reported Kd value of Drosophila insulin-like peptide 5, C4 variant (B2-B29) (ligand) chain 1: NSLRACGPALMDMLRVACPNGFNSMFAK chain 2: DFRGVVDSCCRNSCSFSTLRAYCDS .
Response: 5.4

Reference source: paper PMC6155051
